System: Botulinum neurotoxin type F light chain protease (Clostridium botulinum)
experimental_protocol: Botulinum neurotoxin type F light chain protease inhibition, multiplex microsphere flow cytometry, validation set (AID 588459)
condition: multiplex microsphere protease substrate cleavage assay, at 10 µM, active compounds read high
quantity_measured: inhibition (%)
Answers are plain numbers, in %.

Reference set, count: 5
Query :: Sample Cc1nc2ccccc2c(=O)n1N — what was its inhibition?
Result :: 4.9

Query :: Sample CCOc1ccc(CC2CCC(=O)NC2=O)cc1 (configuration not stated) — what was its inhibition?
Result :: -3

Query :: Sample CC(C)CC(=O)NC(NC(=O)CC(C)C)c1cccc([N+](=O)[O-])c1 — what was its inhibition?
Result :: 1.7

Query :: Sample CCOc1cc(C)cc2oc(=O)cc(-c3ccccc3)c12 — what was its inhibition?
Result :: -2.2

Query :: Sample O=C(OCCNC(=O)c1ccc2ccccc2n1)c1ccc(F)cc1 — what was its inhibition?
Result :: 1.8

// each compound listed below needs its inhibition
1. CC1COc2c(N3CCN(C)CC3)c(F)cc3c(=O)c(C(=O)O)cn1c23 (configuration not stated)
2. CC(=O)OC[C@H]1O[C@@H](Sc2cccc3cccnc23)[C@H](OC(C)=O)[C@@H](OC(C)=O)[C@H]1OC(C)=O
3. COC(=O)c1cc(=O)c2ccc(OC)cc2o1
4. CC(=O)NC(NC(=S)N1CCCCCC1)C(Cl)(Cl)Cl (configuration not stated)

Result ::
1. -0.1
2. -3.9
3. -4.1
4. -2.7

// each compound listed below needs its inhibition
1. OCCN1CCN(CCCN2c3ccccc3Sc3ccc(C(F)(F)F)cc32)CC1
2. CC(C)CC(=O)Nc1ccc2oc(-c3ccncc3)nc2c1
3. COc1ccc(NC(=O)CC2C(=O)N(C)C(=S)N2Cc2ccncc2)cc1 (configuration not stated)
4. CC1(C)CC(=O)c2cn3c(nc2C1)nc1ccccc13
5. O=c1c(C(c2ccccc2)c2c(O)sc3ccccc3c2=O)c(O)sc2ccccc12

Result ::
1: -3.2; 2: 1.4; 3: -2.7; 4: 1; 5: -0.8

// each compound listed below needs its inhibition
1. O=C(c1cccc2ccccc12)C1CCCN(C(=O)CCN2CCCO2)C1 (configuration not stated)
2. CC(=O)N1c2ccccc2C(C)=CC1(C)C
3. CCOC(=O)C(NC(=O)CCC(=O)Nc1ccc(S(N)(=O)=O)cc1)C(O)c1ccccc1 (configuration not stated)
4. COc1cc(C(=O)Nc2ccc(N(C)C)cc2)c([N+](=O)[O-])cc1OC
5. COc1ccc(C2C3CCCCC3(O)CCN2C(=O)c2cccs2)cc1 (configuration not stated)
6. C=CCNC(=S)N1CCc2c([nH]c3ccccc23)C1C (configuration not stated)
7. O=C(Cc1ccc(Br)cc1)c1ccc(O)cc1O

Result ::
1.2
2.3
-0.5
-2.4
2.8
1.4
-3.5

// each compound listed below needs its inhibition
1. CN(CCO)CC(O)Cn1cnc2c1c(=O)n(C)c(=O)n2C (configuration not stated) (tested in a mixture with another compound)
2. CCOc1ccc2oc(-c3ccccc3)c(C(=O)O)c2c1
3. O=C(Nc1cccc(-c2nc3ncccc3o2)c1)c1ccccc1
4. O=C(COc1cc(O)c2c(=O)c3ccccc3oc2c1)OCc1ccccc1
5. CC(=O)Oc1ccc(C(=O)O)cc1OC(C)=O

Result ::
1: -0.4; 2: -1.1; 3: 2.8; 4: 1.4; 5: -0.7

// each compound listed below needs its inhibition
1. CC12CCC(C(=O)N3CCCCC3)([C@H](Br)C1=O)C2(C)C (some centres not stated)
2. O=C(Nc1cccc(C(=O)O)c1)/C(=C\c1ccccc1)NC(=O)c1ccccc1

Result ::
1. -3.4
2. 1.8

// each compound listed below needs its inhibition
1. Cc1ccc(CSCC(=O)NCCCN2CCOCC2)cc1
2. CCOc1cc2c3c(c1)C(C)=CC(C)(C)N3C(=O)C2=O
3. C[C@]12CC[C@@H]3c4cc(O)c(O)cc4CC[C@H]3[C@@H]1CC[C@@H]2O
4. Cc1ccc2[nH]c3c(=O)n(CCc4cnc[nH]4)cnc3c2c1
5. COc1cccc2c(=O)c(C/C=C(/C)Cl)c(C)[nH]c12

Result ::
1: 1.4; 2: 1.1; 3: -1; 4: -6.6; 5: 1.2

// each compound listed below needs its inhibition
1. O=C(N/N=C\c1cc([N+](=O)[O-])ccc1N1CCOCC1)c1ccccn1
2. O=c1[nH]c(=S)n(-c2ccccc2)c(O)c1/C=N/N1CCCCC1c1cccnc1 (configuration not stated)

Result ::
-0.1
-0.8

// each compound listed below needs its inhibition
1. Cc1oc2c(O)c(O)ccc2c(=O)c1-c1ccccc1
2. Clc1ccc(Cn2c(CN3CCCC3)nc3ccccc32)cc1
3. O=C1CC(c2ccc(O)cc2)Oc2cc(O)cc(O)c21 (configuration not stated)

Result ::
1. 1.6
2. -2.6
3. -2.6

* * *

Tested on: Botulinum neurotoxin type F light chain protease (Clostridium botulinum)
experimental_protocol: Botulinum neurotoxin type F light chain protease inhibition, multiplex microsphere flow cytometry, validation set (AID 588459)
condition: multiplex microsphere protease substrate cleavage assay, at 10 µM, active compounds read high
quantity_measured: inhibition (%)
Give bare numbers, in %.

Reference set, count: 2
Query :: Sample COc1ccc(C2NC(=O)c3ccccc3O2)c(OC)c1OC (centres undefined) — what was its inhibition?
Result :: -2.1

Query :: Sample C[C@]12CC[C@H]3C(=CCc4cc(O)ccc43)[C@@H]1CCC2=O — what was its inhibition?
Result :: 0.5

// each molecule listed below needs its inhibition
1. CNCCC(Oc1ccc(C(F)(F)F)cc1)c1ccccc1 (centres undefined)
2. CC(C)NC(C)C(=O)c1ccc2ccccc2c1 (centres undefined)

Result ::
-3.3
1.8

* * *

Task for the reader: assign each of the following compounds its reported inhibition.
system_under_test: Integrin beta-1 (Homo sapiens) + Integrin alpha-4 (Homo sapiens) (UniProt P13612+P05556)
Sequence (P05556 whole entry, looked up): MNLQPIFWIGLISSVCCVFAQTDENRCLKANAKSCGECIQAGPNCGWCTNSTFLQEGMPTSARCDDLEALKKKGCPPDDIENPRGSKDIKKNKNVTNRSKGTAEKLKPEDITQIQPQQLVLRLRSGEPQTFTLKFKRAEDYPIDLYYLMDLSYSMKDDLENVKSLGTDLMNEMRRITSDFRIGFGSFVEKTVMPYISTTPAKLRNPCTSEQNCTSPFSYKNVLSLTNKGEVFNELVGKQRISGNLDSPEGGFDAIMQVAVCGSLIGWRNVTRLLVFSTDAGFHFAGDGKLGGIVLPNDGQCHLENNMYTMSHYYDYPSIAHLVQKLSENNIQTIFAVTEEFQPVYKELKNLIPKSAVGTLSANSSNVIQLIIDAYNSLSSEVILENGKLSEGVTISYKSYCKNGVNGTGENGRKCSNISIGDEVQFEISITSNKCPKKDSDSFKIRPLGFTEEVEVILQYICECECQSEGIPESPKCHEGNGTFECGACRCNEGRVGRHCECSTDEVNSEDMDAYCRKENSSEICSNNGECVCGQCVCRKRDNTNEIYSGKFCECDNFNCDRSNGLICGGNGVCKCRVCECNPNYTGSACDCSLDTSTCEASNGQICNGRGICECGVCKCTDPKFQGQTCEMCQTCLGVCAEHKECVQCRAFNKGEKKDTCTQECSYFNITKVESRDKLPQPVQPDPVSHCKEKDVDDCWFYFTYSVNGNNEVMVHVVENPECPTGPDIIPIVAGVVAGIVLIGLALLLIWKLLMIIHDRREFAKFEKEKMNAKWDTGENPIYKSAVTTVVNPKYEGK
Sequence (P13612 whole entry, looked up): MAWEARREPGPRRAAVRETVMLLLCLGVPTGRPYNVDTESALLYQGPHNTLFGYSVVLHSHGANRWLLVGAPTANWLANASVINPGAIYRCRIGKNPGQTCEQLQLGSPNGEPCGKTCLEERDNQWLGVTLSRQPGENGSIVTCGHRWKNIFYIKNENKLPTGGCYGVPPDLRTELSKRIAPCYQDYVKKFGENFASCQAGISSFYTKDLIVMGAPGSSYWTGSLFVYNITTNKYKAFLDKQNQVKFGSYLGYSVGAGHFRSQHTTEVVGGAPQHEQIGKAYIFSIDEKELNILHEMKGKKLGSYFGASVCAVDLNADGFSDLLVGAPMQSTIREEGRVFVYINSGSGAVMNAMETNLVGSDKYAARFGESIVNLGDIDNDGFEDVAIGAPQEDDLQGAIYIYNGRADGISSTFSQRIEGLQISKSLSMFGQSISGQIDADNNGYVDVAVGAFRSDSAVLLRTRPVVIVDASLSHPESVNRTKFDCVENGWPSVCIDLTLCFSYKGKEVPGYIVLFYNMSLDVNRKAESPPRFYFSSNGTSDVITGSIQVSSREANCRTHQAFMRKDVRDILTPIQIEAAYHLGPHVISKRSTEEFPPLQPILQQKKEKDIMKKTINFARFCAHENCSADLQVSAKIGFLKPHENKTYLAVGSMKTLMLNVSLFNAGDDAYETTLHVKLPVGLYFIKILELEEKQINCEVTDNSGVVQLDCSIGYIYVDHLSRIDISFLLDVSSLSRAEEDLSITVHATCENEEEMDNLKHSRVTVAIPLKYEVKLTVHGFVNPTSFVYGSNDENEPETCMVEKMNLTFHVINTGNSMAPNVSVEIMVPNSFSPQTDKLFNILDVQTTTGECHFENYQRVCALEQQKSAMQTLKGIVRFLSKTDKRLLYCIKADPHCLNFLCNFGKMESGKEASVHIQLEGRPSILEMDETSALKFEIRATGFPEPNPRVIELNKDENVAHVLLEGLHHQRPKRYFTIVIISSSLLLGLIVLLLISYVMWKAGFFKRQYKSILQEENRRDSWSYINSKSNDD
experimental_protocol: inhibition of HUTS-21 binding to VLA-4, pilot screen, VLA-4 allosteric modulator project, U937 cells, HUTS-21 mAb, flow cytometry, validation set (AID 2674);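 note: antibody binding induced by the VLA-4 ligand LDV present at three times its Kd; 0% = LDV ligand with antibody and no compound and 100% = antibody without LDV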
condition: HUTS-21 LIBS mAb binding, at 6.7 µM, active compounds read high
Numbers only, in %.

Reference set, count: 5
Query :: Sample OC(c1ccccc1)(c1ccccc1)C1CCNCC1 — what was its inhibition?
Result :: -5.18

Query :: Sample COc1ccc(NC2=NCC(C)S2)cc1 (stereo unspecified) — what was its inhibition?
Result :: 11

Query :: Sample COc1ccc(CN2CC3CC(C2)c2cccc(=O)n2C3)cc1OC (stereo unspecified) — what was its inhibition?
Result :: 14.1

Query :: Sample CN1C(=O)N(C)C(=O)C2(Cc3ccccc3N3CCOCC32)C1=O (stereo unspecified) — what was its inhibition?
Result :: 8.28

Query :: Sample CN1C2CCC1CC(OC(=O)c1ccc(Cl)cc1)C2 (stereo unspecified) — what was its inhibition?
Result :: 11.9

// next entry
Query :: Sample Cc1cc(Cl)ccc1OC(C)C(=O)O (stereo unspecified) — what was its inhibition?
Result :: -6.15

* * *

Task for the reader: assign each of the following compounds its reported inhibition.
system_under_test: Lethal factor (Bacillus anthracis)
experimental_protocol: Lethal factor protease inhibitors, Bacillus anthracis, multiplex microsphere cleavage assay, validation set (AID 588461)
condition: flow cytometry, at 10 µM, active compounds read high
Answers are plain numbers, in %.

Query :: Sample Nc1c(C(=O)c2ccccc2)oc2ccccc12 — what was its inhibition?
Result :: -7.3

Query :: Sample CC12CCC3C(CC=C4CC(O)CCC43C)C1C/C(=C\c1cccc(F)c1)C2=O (configuration not stated) — what was its inhibition?
Result :: -1.4

Query :: Sample OCC1(CCOc2ccccc2)CCN(CCCn2cccn2)CC1 — what was its inhibition?
Result :: -1.4

Query :: Sample O=C(NC(=S)N1CCCCC1)c1cccnc1 — what was its inhibition?
Result :: -4.6

Query :: Sample NS(=O)(=O)c1cc2c(cc1Cl)NC(C(Cl)Cl)NS2(=O)=O (configuration not stated) — what was its inhibition?
Result :: -3

Query :: Sample CCOC(=O)Nc1ccc2c(c1)N(C(=O)CCN1CCOCC1)c1ccccc1S2 — what was its inhibition?
Result :: 0.2

// each compound listed below needs its inhibition
1. CC(C)OC(=O)CC1C(=O)NCCN1C(=S)NC(=O)c1ccccc1Cl (configuration not stated)
2. CCc1cc2c(=O)c(-c3ccc(F)cc3)c(C)oc2cc1OCC(=O)O
3. Cc1cc(-c2nn(-c3ccccc3F)cc2CN2CCC(O)CC2)c(C)s1
4. CC(C)(C)C(=O)NC(=S)NNC(=O)c1ccncc1

Result ::
[-0.2, -1.1, -1.4, -3.3]

// each compound listed below needs its inhibition
1. CN1[C@@H]2CC[C@H]1CC(OC(=O)C1C=Nc3ccccc31)C2 (some centres not stated)
2. CN1C(=O)C(O)(CC(=O)c2ccccc2O)c2cc(Br)ccc21 (configuration not stated)
3. COc1ccccc1C(=O)c1cc2ccc(O)cc2oc1=O
4. CSCCC(NC(=O)/C(=C/c1ccc2c(c1)OCO2)NC(=O)c1cccc([N+](=O)[O-])c1)C(=O)O (configuration not stated)

Result ::
1: 4.3; 2: -5.4; 3: 2.7; 4: -9.5
